Data provenance is paper PMC4072508.

target: Bcl-xL, Q07817; assay: peptide SPOT array, c-Myc-tagged receptor at 1 uM or 100 nM, anti-c-Myc-Cy3
Sequence (Q07817 1-209): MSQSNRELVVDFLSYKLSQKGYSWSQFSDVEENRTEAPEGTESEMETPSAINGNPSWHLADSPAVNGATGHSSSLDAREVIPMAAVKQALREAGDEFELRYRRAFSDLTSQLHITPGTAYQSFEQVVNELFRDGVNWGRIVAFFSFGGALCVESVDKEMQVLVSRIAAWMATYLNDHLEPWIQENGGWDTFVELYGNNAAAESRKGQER
SPOT signal as a fraction of Bim BH3's signal on the same receptor and array under 0.08 gets t, anything at or over 0.08 gets f.

>>> assigned_class("HPKRKQVTELLLRKLANVNEKNKDFM [TNKS]")
"f"
>>> assigned_class("RKDAELLCWDDRQSGYPLWSLGREVT [WRAP53]")
"t"
>>> assigned_class("IQQDLGCGASDGVISDNLLVTGGQGC [SCAP]")
"t"
>>> assigned_class("IKKSVTKGEMDKIVGKRFREHFPEIL [MAGEB2]")
"f"
>>> assigned_class("LALMMQLARELKTLARDLGMAVVVTN [RAD51L3]")
"f"
